All figures here come from the supplement of paper PMC9170038.

System: MS2 coat protein
measurement notes: apparent KD of MS2 coat protein; higher = weaker reporter binding
test context: Eterna round: R107; input ligand: theophylline 20 uM
measured parameter: apparent KD of MS2 coat protein
In your response, put the unit directly after the numeric value.

// query Entry under review: UCGCGAGAGGGAAGGAGCGUCAGCUGAGUCACAUGAGGAUCACCCAUGUCGCACAUAGUGUGACAGGUAGGUCGCCCUCCGCCCU [Leinticees] . Reported apparent KD of MS2 coat protein?
// result 248 nM

// query Entry under review: GGACUAACCAGAAGGAGCGACGCGCAGAAACUGCAAAAUCCUCCACACGAGGAUCACCCGUGUCAGGUAGGUCGCUGGUUAGUCG [ArgXB 16 #CuTurnoff #MS2Left #StaticStem #Blueprint] . Reported apparent KD of MS2 coat protein?
// result 36.1 nM

// query Entry under review: AAGGGAGAAUCAGAUACCAGAGUAAGAUGGCAUGAUAAUUACAUGAGGAUCACCCAUGUACUCCCUUGGCAGCUGACAAUAUAUU [Exclusion Theophylline B GF 18] . Reported apparent KD of MS2 coat protein?
// result 13.2 nM

// query Entry under review: UCGUUAUGGUCGGCCGCCACUCGCGGAGAGCAUAGCUCAAACAUGAGGAUCACCCAUGUAUCAUGGAGGACCGGGACCAUAACGU [Rxmullin variation #StaticStem] . Reported apparent KD of MS2 coat protein?
// result 46.1 nM

// query Entry under review: UGUACUAUGUGAAGGAGCGAGAAGGAGCGAACAUGAGGAUCACCCAUGUACAGGUAGGUCGCUCAGGUAGGUCGCACAUAGUACU [ArgBS - Double aptamer] . Reported apparent KD of MS2 coat protein?
// result 14.6 nM

// query Entry under review: UGUCCUCAUGCGGCCGCCACUGUCGGCCGCCACUAAACAUGAGGAUCACCCAUGUAGGACCGGGACAGGACCGGGCAUGGGUGCU [TryBS - #DoubleAptamer] . Reported apparent KD of MS2 coat protein?
// result 232 nM

// query Entry under review: ACAUGAGGAUCACCCAUGUGCCGUCUUGAUACCAGACCCGAAGUAGUCCCUUGGCAGCAACUACGUGACGGUCGCGCAUGUGUAG [kaomullin] . Reported apparent KD of MS2 coat protein?
// result 30.3 nM

// query Entry under review: UACAUGAGGAUCACCCAUGUAUGUAUCGAAGGAGCGCGUGUAAACGCAGGUAGGUCGCGAACAUGAGGAUCACACAUGAGGAUCA [Same State Arginine A] . Reported apparent KD of MS2 coat protein?
// result 31.1 nM

// query Entry under review: UUUAAGAACCGAAGGAGCGCCAGAAAUAAGAACGCUACAUGAGGAUCACCCAUGUAAUAAGGGCAGGUAGGUCGCGGAAUUUAAA [last] . Reported apparent KD of MS2 coat protein?
// result 33.4 nM

// query Entry under review: UCUUGAGUUUCGGAUACCAGUGAUGUCGAUACAUGAGGAUCACCCAUGUUAGAGGAUGUACACCCUUGGCAGCCGGGUGUGGCGG [wswmullin] . Reported apparent KD of MS2 coat protein?
// result 42.1 nM

Continuing:
// query Entry under review: AAUUUUAACGGAAGGAGCGUCAAUUAAUACAAACAUGAGGAUCACCCAUGUCAAUACAUGAGACAGGUAGGUCGCCGUUAUUUGA [JR_AAArginiB_Sub024] . Reported apparent KD of MS2 coat protein?
// result 28 nM

// query Entry under review: UGACAUUGCUCAGAUACCAGACAUGAGGAUCACCCAUGUGCCAAAACGUACUAAAUAAAUGUCCCUUGGCAGCUGAGCAAUGUCU [TheoBX 13 #MS2Left #Theo2] . Reported apparent KD of MS2 coat protein?
// result 14.4 nM
